- subject.of.test: Somatostatin receptor type 2 (Homo sapiens, UniProt P30874)
- Sequence (P30874 whole entry): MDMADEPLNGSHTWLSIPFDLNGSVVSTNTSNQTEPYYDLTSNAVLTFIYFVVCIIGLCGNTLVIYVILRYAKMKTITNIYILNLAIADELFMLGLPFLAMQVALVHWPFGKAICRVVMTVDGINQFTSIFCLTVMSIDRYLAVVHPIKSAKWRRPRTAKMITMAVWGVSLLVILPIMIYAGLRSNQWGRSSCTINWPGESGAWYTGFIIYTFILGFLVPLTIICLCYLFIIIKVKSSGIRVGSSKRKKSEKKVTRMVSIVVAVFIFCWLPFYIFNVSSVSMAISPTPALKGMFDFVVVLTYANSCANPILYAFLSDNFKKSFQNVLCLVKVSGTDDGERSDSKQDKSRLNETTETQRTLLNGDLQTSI
- protocol: In vitro binding affinity was evaluated against human Somatostatin receptor type 2 (hSSTR-2)
reported.property: Ki (nM)

Recorded results for 6 compounds are shown here.
C[C@@H](c1c[nH]c2ccccc12)[C@@H](NC(=O)NCCCc1ccccc1)C(=O)N[C@H](CCCCN)C(=O)OC(C)(C)C
1
CC(CCc1ccccc1)N1CCN([C@@H](C(=O)N[C@H](CCCCN)C(=O)OC(C)(C)C)[C@@H](C)c2c[nH]c3ccccc23)C1=O (some centres undefined)
12
C[C@@H](c1c[nH]c2ccccc12)[C@H](C(=O)N[C@H](CCCCN)C(=O)OC(C)(C)C)N1CCN(Cc2ccccc2)C1=O
14
C[C@@H](c1c[nH]c2ccccc12)[C@H](C(=O)N[C@H](CCCCN)C(=O)OC(C)(C)C)N1CCN(Cc2ccc(C(F)(F)F)cc2)C1=O
1.3
C[C@@H](c1c[nH]c2ccccc12)[C@H](C(=O)N(C)C[C@H]1OC[C@H](N)CO1)N1CCN(CCCc2ccccc2)C1=O
11
C[C@@H](c1c[nH]c2ccccc12)[C@H](C(=O)N(C)C[C@H]1OC[C@H](N)CO1)N1CCN(CCC(c2ccccc2)c2ccccc2)C1=O
4.6

I: C[C@@H](c1c[nH]c2ccccc12)[C@H](C(=O)N[C@H](CCCCN)C(=O)OC(C)(C)C)N1CCN(C2CCCN(c3ccccc3)C2)C1=O (some centres undefined)
II: C[C@@H](c1c[nH]c2ccccc12)[C@H](C(=O)N[C@H](CCCCN)C(=O)OC(C)(C)C)N1CCN(CCCc2ccccc2)C1=O
III: C[C@@H](c1c[nH]c2ccccc12)[C@H](C(=O)NC[C@H]1OC[C@H](N)CO1)N1CCN(CCc2cccc3ccccc23)C1=O
Endpoint returns the given compounds ordered by ascending Ki. Please respond by ranking the labels in the order requested.
I, II, III

---

- protocol: Bioavailability after 1 mpk peroral administration to beagles
- Type: ADME, organism-based, Canis lupus familiaris
- study.conditions: Beagle, dog, in vivo, po, 1 mg/kg
reported.property: bioavailability (%)
// units = %; emit number, no label

Look up bioavailability for this compound: `C[C@@H](c1c[nH]c2ccccc12)[C@@H](NC(=O)NCCCc1ccccc1)C(=O)N[C@H](CCCCN)C(=O)OC(C)(C)C`
1

---

- subject.of.test: Somatostatin receptor type 1 (Homo sapiens)
- Sequence (P30872 whole entry): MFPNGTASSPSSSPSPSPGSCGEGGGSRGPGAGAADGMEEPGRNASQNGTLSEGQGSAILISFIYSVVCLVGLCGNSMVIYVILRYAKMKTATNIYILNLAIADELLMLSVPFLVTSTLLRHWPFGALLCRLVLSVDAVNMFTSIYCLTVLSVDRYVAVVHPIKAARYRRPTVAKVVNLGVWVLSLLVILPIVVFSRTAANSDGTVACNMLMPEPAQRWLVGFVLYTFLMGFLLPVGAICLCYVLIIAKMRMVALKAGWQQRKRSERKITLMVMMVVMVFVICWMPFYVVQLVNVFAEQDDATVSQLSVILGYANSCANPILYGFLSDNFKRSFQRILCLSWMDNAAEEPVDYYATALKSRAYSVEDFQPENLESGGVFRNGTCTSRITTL
reported.property: pKi
Quick note: pKi means taking -log10 of the concentration in moles per liter.

Form entry - test system: Somatostatin receptor type 1 (Homo sapiens); read-out: pKi; compound: `C[C@@H](c1c[nH]c2ccccc12)[C@H](C(=O)N[C@H](CCCCN)C(=O)OC(C)(C)C)N1CCN(CCCc2ccccc2)C1=O`
6.15

---

- subject.of.test: Somatostatin receptor type 2 (Homo sapiens, UniProt P30874)
- protocol: In vitro binding affinity was evaluated against human Somatostatin receptor type 2 in experiment 1
reported.property: Ki (nM)

I: C[C@@H](c1c[nH]c2ccccc12)[C@H](C(=O)N(C)C[C@H]1OC[C@H](N)CO1)N1CCN(C2CCCN(c3ccccc3)C2)C1=O (some centres not stated)
II: C[C@@H](c1c[nH]c2ccccc12)[C@H](C(=O)N[C@H](CCCCN)C(=O)OC(C)(C)C)N1CCN(C2CCC(c3ccccc3)CC2)C1=O (some centres not stated)
Which entry has a larger number for Ki, I or II ? Kindly give the label for the entry you pick.
II

---

- protocol: Bioavailability after 2 mpk peroral administration to beagles
- Assay type: ADME, organism-based, Canis lupus familiaris
- study.conditions: Beagle, dog, in vivo, po, 2 mg/kg
reported.property: bioavailability (%)
Kindly answer with a numeric value in %, unit omitted.

I would be grateful if you could share the reported bioavailability for `C[C@@H](c1c[nH]c2ccccc12)[C@H](C(=O)N[C@H](CCCCN)C(=O)OC(C)(C)C)N1CCN(CCCc2ccccc2)C1=O` .
5

---

- protocol: Cmax value after 1 mpk peroral administration to beagles
- Format: ADME, organism-based, Canis lupus familiaris
- Design: dose 1 mpk, route oral
- study.conditions: Beagle, dog, in vivo, po, 1 mg/kg
reported.property: Cmax (ng/mL)

C[C@@H](c1c[nH]c2ccccc12)[C@@H](NC(=O)NCCCc1ccccc1)C(=O)N[C@H](CCCCN)C(=O)OC(C)(C)C
86
C[C@@H](c1c[nH]c2ccccc12)[C@@H](NC(=O)N(C)CCCc1ccccc1)C(=O)N[C@H](CCCCN)C(=O)OC(C)(C)C
103

---

- protocol: Area under curve after 2 mpk peroral administration to beagles
- Type: ADME, Canis lupus familiaris
- study.conditions: Beagle, dog, in vivo, po, 2 mg/kg
reported.property: AUC (ng·h/mL)
Answer format: numeric, ng·h/mL implied, no suffix.

For the molecule `C[C@@H](c1c[nH]c2ccccc12)[C@H](C(=O)N[C@H](CCCCN)C(=O)OC(C)(C)C)N1CCN(CCCc2ccccc2)C1=O` , what AUC is on record?
837

---

- subject.of.test: Somatostatin receptor type 2 (Homo sapiens)
- protocol: In vitro binding affinity was evaluated against human Somatostatin receptor type 2 (hSSTR-2)
reported.property: Ki (nM)

C[C@@H](c1c[nH]c2ccccc12)[C@@H](NC(=O)N(C)CCCc1ccccc1)C(=O)N[C@H](CCCCN)C(=O)OC(C)(C)C
2.2
C[C@@H](c1c[nH]c2ccccc12)[C@H](C(=O)N[C@H](CCCCN)C(=O)OC(C)(C)C)N1CCN(CCc2ccccc2)C1=O
47
C[C@@H](c1c[nH]c2ccccc12)[C@H](C(=O)NC[C@H]1OC[C@H](N)CO1)N1CCN(CCCc2ccccc2)C1=O
18
C[C@@H](c1c[nH]c2ccccc12)[C@H](C(=O)NC[C@H]1OC[C@H](N)CO1)N1CCN(Cc2ccc(Cl)c(Cl)c2)C1=O
7.3

1: CC(CCN1CCN([C@@H](C(=O)N[C@H](CCCCN)C(=O)OC(C)(C)C)[C@@H](C)c2c[nH]c3ccccc23)C1=O)c1ccccc1 (some centres not stated)
2: C[C@@H](c1c[nH]c2ccccc12)[C@H](C(=O)NC[C@H]1OC[C@H](N)CO1)N1CCN(CCCn2c(O)nc3ccccc32)C1=O
3: C[C@@H](c1c[nH]c2ccccc12)[C@H](C(=O)N[C@H](CCCCN)C(=O)OC(C)(C)C)N1CCN(c2cccc(-c3ccccc3)c2)C1=O
List from greatest to least Ki. List the labels in the requested order.
3, 2, 1
(3: 80 nM, 2: 40 nM, 1: 5.9 nM)

---

- protocol: Area under curve after 1 mpk peroral administration to beagles
- Type: ADME, Canis lupus familiaris
- study.conditions: Beagle, dog, in vivo, po, 1 mg/kg
reported.property: AUC (ng·h/mL)

C[C@@H](c1c[nH]c2ccccc12)[C@@H](NC(=O)NCCCc1ccccc1)C(=O)N[C@H](CCCCN)C(=O)OC(C)(C)C
314
C[C@@H](c1c[nH]c2ccccc12)[C@@H](NC(=O)N(C)CCCc1ccccc1)C(=O)N[C@H](CCCCN)C(=O)OC(C)(C)C
333
